Species on record: Mus musculus
METHOD_DESCRIPTION: Inhibition of nitric oxide production in LPS-activated mouse macrophages at a concentration of 30 uM
Type: functional
inhibition at 30 µM for assorted compounds
EXPERIMENTAL_ENDPOINT: inhibition at 30 µM (%)

>>> experimental_result("C=C(C)[C@H](O)[C@@H](O)C[C@@H](C)C1=C2C[C@H](O)C3[C@@]4(C)CCC(=O)C(C)(C)C4CC[C@]3(C)[C@@]2(C)CC1 (stereo not given in full)")
104
>>> experimental_result("CNC(=N)NCCC[C@H](N)C(=O)O [TILARGININE]")
52.3
>>> experimental_result("CC(C)[C@]12CC[C@](C)(O1)C1CC[C@](C)(S(=O)(=O)O)C1[C@@H]2O (stereo not given in full)")
12.6
>>> experimental_result("CC(=O)O[C@@H](C[C@@H](C)C1=C2[C@H](O)[C@H](O)C3[C@@]4(C)CCC(=O)C(C)(C)C4CC[C@]3(C)[C@@]2(C)CC1=O)[C@H]1OC1(C)C (stereo not given in full)")
86.3
>>> experimental_result("CC(=O)O[C@@H](C[C@@H](C)C1=C2C[C@H](O)C3[C@@]4(C)CCC(=O)C(C)(C)C4CC[C@]3(C)[C@@]2(C)CC1)[C@H]1OC1(C)C (stereo not given in full)")
106
>>> experimental_result("CC(C)C1=CC2C(CC[C@]2(C)O)[C@](C)(O)CC1 (stereo not given in full)")
12
>>> experimental_result("C[C@@H]1CC([C@H]2OC2(C)C)OC2C[C@@]3(C)C(=C21)CCC1[C@@]2(C)CCC(=O)C(C)(C)C2CC[C@@]13C (stereo not given in full)")
84.2
>>> experimental_result("COC(=O)C(C)(C)C1CC[C@@]2(C)C3[C@H](CC4=C([C@H](C)C[C@H](OC(C)=O)[C@H]5OC5(C)C)CC[C@@]42C)OC(=O)C[C@@]13C (stereo not given in full)")
84.2
>>> experimental_result("C[C@@H]1CC([C@@H](O)C(C)(C)O)OC2C[C@@]3(C)C(=C21)C[C@H](O)C1[C@@]2(C)CCC(=O)C(C)(C)C2CC[C@@]13C (stereo not given in full)")
69.6
>>> experimental_result("CC(=O)O[C@@H](C[C@@H](C)[C@]12O[C@H]1C[C@@]1(C)C2=CC(=O)C2[C@@]3(C)CCC(=O)C(C)(C)C3CC[C@@]21C)[C@H]1OC1(C)C (stereo not given in full)")
83.6
>>> experimental_result("CC(=O)O[C@H]1C[C@@H](C)C2=C3C[C@H](O)C4[C@@]5(C)CCC(=O)C(C)(C)C5CC[C@]4(C)[C@@]3(C)C[C@@H]2O[C@H]1C(C)(C)O (stereo not given in full)")
42.9
>>> experimental_result("C=C1/C=C/[C@H](C(C)C)CC/C(C)=C/CC1 [GERMACRENE D]")
29
>>> experimental_result("C[C@H](C[C@H](O)[C@H](O)C(C)(C)O)C1=C2C[C@H](O)C3[C@@]4(C)CCC(=O)C(C)(C)C4CC[C@]3(C)[C@@]2(C)CC1 (stereo not given in full)")
113
>>> experimental_result("C[C@H](C[C@H](O)[C@@H](O)C(C)(C)O)C1=C2C[C@H](O)C3[C@@]4(C)CCC(=O)C(C)(C)C4CC[C@]3(C)[C@@]2(C)CC1 (stereo not given in full)")
84.2
>>> experimental_result("N=C(N)NCCSSCCNC(=N)N [GUANIDINOETHYLDISULFIDE]")
105
>>> experimental_result("CC(C)C1=CC2C(CC[C@]2(C)O)[C@@](O)(CO)CC1 (stereo not given in full)")
21.2
>>> experimental_result("C=C1CCC(C(C)C)=CC2C1CC[C@]2(C)O (stereo not given in full)")
57.5
>>> experimental_result("CC(=O)O[C@@H](C[C@@H](C)C1=C2C[C@@H]3OC(=O)C[C@@]4(C)C(C(C)(C)C(=O)O)CC[C@@](C)(C34)[C@@]2(C)CC1)[C@H]1OC1(C)C (stereo not given in full)")
65.6
>>> experimental_result("CC(=O)O[C@@H](C[C@@H](C)C1=C2C=CC3[C@@]4(C)CCC(=O)C(C)(C)C4CC[C@]3(C)[C@@]2(C)CC1=O)[C@H]1OC1(C)C (stereo not given in full)")
86.5
>>> experimental_result("CC(=O)O[C@@H](C[C@@H](C)C1=C2C[C@H](O)C3[C@@]4(C)CCC(=O)C(C)(C)C4CC[C@]3(C)[C@@]2(C)CC1=O)[C@H]1OC1(C)C (stereo not given in full)")
43.8
>>> experimental_result("CC(=O)O[C@@H](C[C@@H](C)C1=C2[C@H](O)[C@H](O)C3[C@@]4(C)CCC(=O)C(C)(C)C4CC[C@]3(C)[C@@]2(C)CC1)[C@H]1OC1(C)C (stereo not given in full)")
117
>>> experimental_result("CC(C)C1=CC2C(CC[C@]2(C)O)[C@@](O)(CS(=O)(=O)O)CC1 (stereo not given in full)")
16.3
>>> experimental_result("CC(C)C1=CC2C(CC[C@]2(C)O)/C(=C/S(=O)(=O)O)CC1 (stereo not given in full)")
21.5
>>> experimental_result("C=C1CC[C@@]2(C(C)C)O[C@H]2C2C1CC[C@]2(C)O (stereo not given in full)")
29.2
>>> experimental_result("O=C(/C=C/c1ccc(O)c(O)c1)OCCc1ccccc1 [CAFFEIC ACID PHENETHYL ESTER]")
104
>>> experimental_result("C[C@H](CC(=O)CC(C)(C)O)C1=C2CCC3[C@@]4(C)CCC(=O)C(C)(C)C4CC[C@]3(C)[C@@]2(C)CC1=O (stereo not given in full)")
71.3
>>> experimental_result("CC(=O)O[C@H]([C@@H](O)C[C@@H](C)C1=C2C[C@H](O)C3[C@@]4(C)CCC(=O)C(C)(C)C4CC[C@]3(C)[C@@]2(C)CC1)C(C)(C)O (stereo not given in full)")
71
>>> experimental_result("CC(=O)O[C@@H](C[C@@H](C)C1=C2C[C@H](O)C3[C@@]4(C)CCC(=O)C(C)(C)C4CC[C@]3(C)[C@@]2(C)CC1)[C@H](O)C(C)(C)O (stereo not given in full)")
81
>>> experimental_result("C[C@H](C[C@H](O)[C@H]1OC1(C)C)C1=C2C[C@H](O)C3[C@@]4(C)CCC(=O)C(C)(C)C4CC[C@]3(C)[C@@]2(C)CC1 (stereo not given in full)")
109
>>> experimental_result("CC(=O)O[C@@H](C[C@@H](C)C(=O)CC[C@@]1(C)C(=O)C=CC2[C@@]3(C)CCC(=O)C(C)(C)C3CC[C@@]21C)[C@H]1OC1(C)C (stereo not given in full)")
61

* * *

Species on record: Mus musculus
METHOD_DESCRIPTION: Inhibition of nitric oxide production in LPS-activated mouse macrophages at a concentration of 3 uM
Assay type: functional
Label Satisfied for high-side inhibition at 3 µM (at or above 10%) and Not satisfied for low-side inhibition at 3 µM (below it).

>>> answer_label("CC(=O)O[C@@H](C[C@@H](C)C1=C2C=CC3[C@@]4(C)CCC(=O)C(C)(C)C4CC[C@]3(C)[C@@]2(C)CC1=O)[C@H]1OC1(C)C (stereo partly drawn)")
"Satisfied"
>>> answer_label("CC(=O)O[C@@H](C[C@@H](C)C1=C2[C@H](O)[C@H](O)C3[C@@]4(C)CCC(=O)C(C)(C)C4CC[C@]3(C)[C@@]2(C)CC1)[C@H]1OC1(C)C (stereo partly drawn)")
"Not satisfied"
>>> answer_label("CC(C)C1=CC2C(CC[C@]2(C)O)/C(=C/S(=O)(=O)O)CC1 (stereo partly drawn)")
"Satisfied"
>>> answer_label("CC(=O)O[C@@H](C[C@@H](C)C1=C2C[C@H](O)C3[C@@]4(C)CCC(=O)C(C)(C)C4CC[C@]3(C)[C@@]2(C)CC1)[C@H]1OC1(C)C (stereo partly drawn)")
"Satisfied"
>>> answer_label("C=C1/C=C/[C@H](C(C)C)CC/C(C)=C/CC1 [GERMACRENE D]")
"Not satisfied"
>>> answer_label("CC(=O)O[C@H]([C@@H](O)C[C@@H](C)C1=C2C[C@H](O)C3[C@@]4(C)CCC(=O)C(C)(C)C4CC[C@]3(C)[C@@]2(C)CC1)C(C)(C)O (stereo partly drawn)")
"Not satisfied"
>>> answer_label("C=C1CCC(C(C)C)=CC2C1CC[C@]2(C)O (stereo partly drawn)")
"Satisfied"
>>> answer_label("CC(=O)O[C@@H](C[C@@H](C)C1=C2C[C@H](O)C3[C@@]4(C)CCC(=O)C(C)(C)C4CC[C@]3(C)[C@@]2(C)CC1=O)[C@H]1OC1(C)C (stereo partly drawn)")
"Satisfied"
